Each recorded value in this set is attributed to patent US20240400614A1.

- tgt: MMP-2 (Homo sapiens, UniProt P08253)
- Construct: purchased SIGMA PF023
- Sequence (P08253 110-660): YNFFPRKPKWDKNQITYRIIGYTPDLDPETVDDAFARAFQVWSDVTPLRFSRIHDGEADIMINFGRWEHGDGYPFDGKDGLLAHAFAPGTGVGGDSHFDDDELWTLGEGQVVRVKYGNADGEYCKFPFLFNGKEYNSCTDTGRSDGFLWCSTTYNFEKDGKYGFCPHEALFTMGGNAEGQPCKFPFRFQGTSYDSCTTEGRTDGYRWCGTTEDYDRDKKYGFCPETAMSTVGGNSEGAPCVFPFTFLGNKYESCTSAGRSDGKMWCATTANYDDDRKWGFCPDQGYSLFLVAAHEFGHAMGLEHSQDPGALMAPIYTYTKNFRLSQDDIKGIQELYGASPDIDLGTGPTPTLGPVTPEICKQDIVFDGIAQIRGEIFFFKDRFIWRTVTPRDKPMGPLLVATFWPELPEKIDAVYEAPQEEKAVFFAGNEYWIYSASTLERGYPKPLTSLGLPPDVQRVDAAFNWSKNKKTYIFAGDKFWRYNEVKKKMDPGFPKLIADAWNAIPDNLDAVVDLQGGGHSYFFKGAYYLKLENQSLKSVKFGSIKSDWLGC
- assay_notes: FRET peptide cleavage efficiency with MMP-2
- Assay type: biochemical
- experimental_conditions: t = 120 min (Table 9)
Square brackets hold non-standard residues; d marks the D form. Ends that are not written are not given here. Tyr(3-NO2) = N[C@@H](Cc1ccc(O)c([N+](=O)[O-])c1)C(=O)O; Nle = CCCC[C@H](N)C(=O)O; 2Abz = Nc1ccccc1C(=O)O
Record form. Attribute: % cleavage MMP-2 t = 120 min. Fill in for each entry.
Answer in %, number only, no unit symbol.

Note to self: % cleavage MMP-2 t = 120 min recorded for SGRVAGLVG ([2Abz]SGRVAGLVG[Tyr(3-NO2)]-NH2) [LNK016] was 100

Note to self: % cleavage MMP-2 t = 120 min recorded for SSRGPYMLQG ([2Abz]SSRGPYMLQG[Tyr(3-NO2)]-NH2) [LNK022] was 94

Note to self: % cleavage MMP-2 t = 120 min recorded for SGRVANYFGKL ([2Abz]SGRVANYFGKL[Tyr(3-NO2)]-NH2) [LNK054] was 100

Note to self: % cleavage MMP-2 t = 120 min recorded for RGRKSPYMLQG ([2Abz]RGRKSPYMLQG[Tyr(3-NO2)]-NH2) [LNK037] was 89

Note to self: % cleavage MMP-2 t = 120 min recorded for SSRGRRGPYMLQG ([2Abz]SSRGRRGPYMLQG[Tyr(3-NO2)]-NH2) [LNK021] was 100

Note to self: % cleavage MMP-2 t = 120 min recorded for RGRRVANPLGLAGSG ([2Abz]RGRRVANPLGLAGSG[Tyr(3-NO2)]-NH2) [LNK050] was 100

Note to self: % cleavage MMP-2 t = 120 min recorded for RQRRSPLGLAG ([2Abz]RQRRSPLGLAG[Tyr(3-NO2)]-NH2) [LNK010] was 100

Note to self: % cleavage MMP-2 t = 120 min recorded for SGRVQPLVD (not fully specified (N-terminus, C-terminus)) [LNK047] was 9

Note to self: % cleavage MMP-2 t = 120 min recorded for RGRRGP ([2Abz]RGRRGP[Tyr(3-NO2)]-NH2) [LNK048] was 0

Note to self: % cleavage MMP-2 t = 120 min recorded for RGRRSGRAANLVRPLGYFGKL ([2Abz]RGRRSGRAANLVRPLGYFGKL[Tyr(3-NO2)]-NH2) [LNK059] was 100

Note to self: % cleavage MMP-2 t = 120 min recorded for RGRRVANLVG ([2Abz]RGRRVANLVG[Tyr(3-NO2)]-NH2) [LNK033] was 100

Note to self: % cleavage MMP-2 t = 120 min recorded for RGRKSPY-Nle-LQG ([2Abz]RGRKSPY[Nle]LQG[Tyr(3-NO2)]-NH2) [LNK038] was 76

Note to self: % cleavage MMP-2 t = 120 min recorded for SGRVAPQPLVD (not fully specified (N-terminus, C-terminus)) [LNK046] was 88

Note to self: % cleavage MMP-2 t = 120 min recorded for HSSKLQYFGKL ([2Abz]HSSKLQYFGKL[Tyr(3-NO2)]-NH2) [LNK061] was 100

Note to self: % cleavage MMP-2 t = 120 min recorded for RGRKVANLVG ([2Abz]RGRKVANLVG[Tyr(3-NO2)]-NH2) [LNK031] was 100

Note to self: % cleavage MMP-2 t = 120 min recorded for SGRVYMLQG ([2Abz]SGRVYMLQG[Tyr(3-NO2)]-NH2) [LNK044] was 1

Note to self: % cleavage MMP-2 t = 120 min recorded for SGRVAPY-Nle-LQG ([2Abz]SGRVAPY[Nle]LQG[Tyr(3-NO2)]-NH2) [LNK043] was 91

Note to self: % cleavage MMP-2 t = 120 min recorded for RGRRPLGLAG ([2Abz]RGRRPLGLAG[Tyr(3-NO2)]-NH2) [LNK049] was 100

Note to self: % cleavage MMP-2 t = 120 min recorded for RGRRHSSKLQ ([2Abz]RGRRHSSKLQ[Tyr(3-NO2)]-NH2) [LNK052] was 4

Note to self: % cleavage MMP-2 t = 120 min recorded for RGRRAANLVRPLGYFGKL ([2Abz]RGRRAANLVRPLGYFGKL[Tyr(3-NO2)]-NH2) [LNK060] was 100

Note to self: % cleavage MMP-2 t = 120 min recorded for RQRKVANLVG ([2Abz]RQRKVANLVG[Tyr(3-NO2)]-NH2) [LNK032] was 100

Note to self: % cleavage MMP-2 t = 120 min recorded for RGRKSPANLVG ([2Abz]RGRKSPANLVG[Tyr(3-NO2)]-NH2) [LNK034] was 100

Note to self: % cleavage MMP-2 t = 120 min recorded for SGRVAPYMLQG ([2Abz]SGRVAPYMLQG[Tyr(3-NO2)]-NH2) [LNK042] was 100

Note to self: % cleavage MMP-2 t = 120 min recorded for SGRVANLVG (not fully specified (N-terminus, C-terminus)) [LNK017] was 100

Note to self: % cleavage MMP-2 t = 120 min recorded for SGRHSSKLQPLGYFGKL ([2Abz]SGRHSSKLQPLGYFGKL[Tyr(3-NO2)]-NH2) [LNK063] was 100

Note to self: % cleavage MMP-2 t = 120 min recorded for RGRRVANPLGYFGKL ([2Abz]RGRRVANPLGYFGKL[Tyr(3-NO2)]-NH2) [LNK058] was 100

Note to self: % cleavage MMP-2 t = 120 min recorded for SGRPLGYFGKL ([2Abz]SGRPLGYFGKL[Tyr(3-NO2)]-NH2) [LNK056] was 100

Note to self: % cleavage MMP-2 t = 120 min recorded for GSGSGSGS ([2Abz]GSGSGSGS[Tyr(3-NO2)]-NH2) [LNK064] was 0

Note to self: % cleavage MMP-2 t = 120 min recorded for RGRKPY-Nle-LQG ([2Abz]RGRKPY[Nle]LQG[Tyr(3-NO2)]-NH2) [LNK036] was 88

Note to self: % cleavage MMP-2 t = 120 min recorded for RGRKPQPLVD ([2Abz]RGRKPQPLVD[Tyr(3-NO2)]-NH2) [LNK039] was 61

Note to self: % cleavage MMP-2 t = 120 min recorded for SGRVANPLGGSG ([2Abz]SGRVANPLGGSG[Tyr(3-NO2)]-NH2) [LNK053] was 8

Note to self: % cleavage MMP-2 t = 120 min recorded for RGRKPYMLQG ([2Abz]RGRKPYMLQG[Tyr(3-NO2)]-NH2) [LNK035] was 91

Note to self: % cleavage MMP-2 t = 120 min recorded for RGRKSPQPLVD ([2Abz]RGRKSPQPLVD[Tyr(3-NO2)]-NH2) [LNK040] was 47

Note to self: % cleavage MMP-2 t = 120 min recorded for RGRRPLGLAGGSG ([2Abz]RGRRPLGLAGGSG[Tyr(3-NO2)]-NH2) [LNK051] was 100

Note to self: % cleavage MMP-2 t = 120 min recorded for RGRRHSSKLQPLGYFGKL ([2Abz]RGRRHSSKLQPLGYFGKL[Tyr(3-NO2)]-NH2) [LNK062] was 100

Note to self: % cleavage MMP-2 t = 120 min recorded for SGRVLRKAGPQPLVD ([2Abz]SGRVLRKAGPQPLVD[Tyr(3-NO2)]-NH2) [LNK003] was 59
